Assayed Target: HRgpA-6H (Porphyromonas gingivalis) (UniProt P28784)
Test Description: ELISA, coated HRgpA-6H
Give Ratio OD(Variant)/OD(WT) for every item shown.

Read the entry KB001 mouse Fab VH G55D (Fab, V domains shown) VH: EVQLKQSGPGLVAPSQSLSITCTVSGFSLSIYSVHWVRQPPGKGLEWLGMIWGGDSSDYNSALKSRLSISKDNSKSQVFLKMNSLQTDDTAMYYCARNGNFYAMDYWGQGTSVTVSS VL: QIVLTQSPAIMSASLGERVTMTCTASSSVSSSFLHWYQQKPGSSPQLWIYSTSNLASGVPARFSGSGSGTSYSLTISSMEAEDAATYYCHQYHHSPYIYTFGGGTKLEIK and write its reported Ratio OD(Variant)/OD(WT).
0.866

Fill in reported Ratio OD(Variant)/OD(WT) for this entry: KB001 mouse Fab VL T100K (Fab, V domains shown) VH: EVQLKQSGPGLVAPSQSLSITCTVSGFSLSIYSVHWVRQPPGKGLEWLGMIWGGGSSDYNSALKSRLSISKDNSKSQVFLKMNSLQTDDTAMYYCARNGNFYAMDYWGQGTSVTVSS VL: QIVLTQSPAIMSASLGERVTMTCTASSSVSSSFLHWYQQKPGSSPQLWIYSTSNLASGVPARFSGSGSGTSYSLTISSMEAEDAATYYCHQYHHSPYIYKFGGGTKLEIK
1.19

Give Ratio OD(Variant)/OD(WT) for the following binder: KB001 mouse Fab VL S32G (Fab, V domains shown) VH: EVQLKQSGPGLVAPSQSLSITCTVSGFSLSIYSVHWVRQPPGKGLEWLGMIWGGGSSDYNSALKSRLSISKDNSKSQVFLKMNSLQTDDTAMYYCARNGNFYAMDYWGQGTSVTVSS VL: QIVLTQSPAIMSASLGERVTMTCTASSSVSSGFLHWYQQKPGSSPQLWIYSTSNLASGVPARFSGSGSGTSYSLTISSMEAEDAATYYCHQYHHSPYIYTFGGGTKLEIK
0.898
